Field: remaining at 24 h, 10 µM. Provide a value for each of the molecules that follow.
assay: Chemical stability of the compound in PBS buffer assessed as compound remaining at 10 uM at pH 7.4 after 24 hrs by LC-MS/MS analysis; assay type: physicochemical; conditions: read-out: Stability
Answers are plain numbers, in %.

Some molecules with known remaining at 24 h, 10 µM results, for comparison:
CCCc1oc(COc2ccc(F)c(C(N)=O)c2F)nc1-c1ccc(Cl)cc1	98
CC(Oc1ccc(F)c(C(N)=O)c1F)c1nc(-c2ccc(OC(F)(F)F)cc2)c(Br)o1 (racemic)	96
CCc1oc(COc2ccc(F)c(C(N)=O)c2F)nc1-c1ccc(OC)cc1	97

# remaining at 24 h, 10 µM (molecule: NC(=O)c1c(F)ccc(OC(CO)c2nc(-c3ccc(C(F)(F)F)cc3)c(Br)o2)c1F (racemic) ) is 102
